assay comment: qHTS of pediatric cancer cell lines to identify multiple opportunities for drug repurposing: Primary screen for RD cells (AID 1347104); note: nearly all actives have a fitted effect of over 55% in size
condition parameters: RD rhabdomyosarcoma viability, CellTiter-Glo luminescence, 48 h; series mostly up to 46 µM
Inconclusive results are not listed. Active and inactive are the calls of the source. Calls come from the whole dose curve; as a rule, active = well fitted cell-killing curve with a large enough effect; inconclusive = small, poorly fitted or top-dose-only effect; inactive = flat fitted curve, though single readings scatter.
In this exercise, the only acceptable responses are active, inactive

Challenge: What did this assay record as the result for O=c1n(CCCN2CCN(c3cccc(Cl)c3)CC2)nc2ccccn12 ?
Response given: inactive

Challenge: Could you please tell me the result logged for CCn1c(-c2nonc2N)nc2c(C#CC(C)(C)O)ncc(OC[C@H]3CCCNC3)c21 in this assay?
Response given: active

Challenge: Hello, I am checking results. What call was entered for Cc1[nH]c(=O)c(C#N)cc1-c1ccc2nccn2c1 ?
Response given: inactive

Challenge: For Cn1cnc([N+](=O)[O-])c1Sc1ncnc2nc[nH]c12 , which call appears in the assay record?
Response given: inactive

Challenge: Per the assay record, what outcome was assigned to CC(C)(N)C(=O)N[C@H](COCc1ccccc1)C(=O)N1CCC2(CC1)CN(S(C)(=O)=O)c1ccccc12 ?
Response given: active

Challenge: What did this assay record as the result for CCCS(=O)(=O)Nc1ccc(F)c(C(=O)c2c[nH]c3ncc(-c4ccc(Cl)cc4)cc23)c1F ?
Response given: active

Challenge: Hi, sorry to bother you, what did the test record for O=C(O)CCc1ccc(NCc2cccc(Oc3ccccc3)c2)cc1 ?
Response given: inactive

Challenge: Tell me the recorded outcome of this test for NC[C@H](O)c1ccc(O)c(O)c1 .
Response given: inactive

Challenge: Outcome logged for Nc1nccc(-c2ccc3noc(-c4ccc(Cl)cc4)c3c2)n1 in this assay:
Response given: inactive

Challenge: Fill in: this test's call for CNC(=O)c1ccccc1Sc1ccc2c(/C=C/c3ccccn3)n[nH]c2c1 is ___
Response given: inactive

Challenge: Hello, I am checking results. What call was entered for c1ccc([C@H]2CN3CCSC3=N2)cc1 ?
Response given: inactive

Challenge: Hey, what did the test say about CCOc1cc(N2CCC(O)CC2)ccc1Nc1ncc2c(n1)N(C)c1ccccc1C(=O)N2C ?
Response given: active

Challenge: Tell me the recorded outcome of this test for NC(=O)c1ccc(I)c([N+](=O)[O-])c1 .
Response given: inactive

Challenge: Which outcome did this test record for the compound CC(=O)Oc1ccccc1C(=O)O ?
Response given: inactive

Challenge: # fetch the recorded call for NC(=O)c1ccc(-c2nc(-c3ccc4c(c3)OCO4)c(-c3ccccn3)[nH]2)cc1 here
Response given: inactive

Challenge: Returns: the outcome recorded for Clc1ccc(Nc2nnc(Cc3ccncc3)c3ccccc23)cc1 in this assay.
Response given: inactive

Challenge: Status in this test for NC(=O)c1cnccn1 ?
Response given: inactive

Challenge: Kindly provide the recorded test outcome for the following compound: O=C1[C@H](Cc2ccc(O)cc2)N2C(=O)CCN(C(=O)NCc3ccccc3)[C@H]2CN1Cc1cccc2ccccc12
Response given: active

Challenge: Per the records of this test, what outcome belongs to Cc1ccc(NC(=O)c2cccc(C(C)(C)C#N)c2)cc1Nc1ccc2ncn(C)c(=O)c2c1 ?
Response given: active

Challenge: Dear colleague, could you share the recorded outcome for Oc1ccc(C2CNCCc3c2cc(O)c(O)c3Cl)cc1 (centres undefined) when you have a moment?
Response given: inactive

Challenge: Outcome logged for Cc1cc(C=c2sc3nc4ccccc4n3c2=O)c(C)n1-c1ccccc1 in this assay:
Response given: inactive

Challenge: Answer briefly: the call reported for Cc1ccc(N(CC2=NCCN2)c2cccc(O)c2)cc1 in this assay.
Response given: inactive

Challenge: Write down the call the test reported for this compound. Item: CNC[C@H](O)c1cccc(O)c1
Response given: inactive

Challenge: Hi, do you know how CC1(C)SCCN(S(=O)(=O)c2ccc(OCC#CCO)cc2)[C@@H]1C(=O)NO came out in this test?
Response given: inactive

Challenge: How did this test come out for CNC(=O)c1ccc(N2C(=S)N(c3ccc(C#N)c(C(F)(F)F)c3)C(=O)C2(C)C)cc1F ?
Response given: inactive

Challenge: Please share the test call associated with Cc1cccc(-c2nn(C(=S)Nc3ccccc3)cc2-c2ccnc3ccccc23)n1 .
Response given: inactive

Challenge: State the result this test recorded for Nc1nc2c(ncn2COCCO)c(=O)[nH]1 .
Response given: inactive

Challenge: Returns: the outcome recorded for Cc1c(CN2CCN(C(=O)C(C)C)CC2)sc2c(N3CCOCC3)nc(-c3cnc(N)nc3)nc12 in this assay.
Response given: active

Challenge: Give the logged outcome of this assay for the following compound: CC(C)OC(=O)C1=CN(C(=O)c2ccc(F)c(F)c2)CC(C)(C)c2c1[nH]c1ccccc21
Response given: inactive

Challenge: Fill in: this test's call for CC(C)NCC(O)COc1ccc(COCCOC(C)C)cc1 (centres undefined) is ___
Response given: inactive

Challenge: What call does the record list for OC(CN1CCC(Cc2ccc(F)cc2)CC1)c1ccc(Cl)cc1 (centres undefined) ?
Response given: inactive

Challenge: Please let me know the test result on file for Cc1[nH]c(=O)c(C#N)cc1-c1ccncc1 .
Response given: inactive

Challenge: Record lookup: outcome of this test for CS(=O)(=O)c1cccc(CNc2nc(Nc3ccc4c(c3)CCC(=O)N4)ncc2C(F)(F)F)c1 ?
Response given: active

Challenge: Which result was noted for this compound in the test: N[C@@H]1CONC1=O
Response given: inactive

Challenge: Outcome? O=C(NOC[C@H](O)CO)c1ccc(F)c(F)c1Nc1ccc(I)cc1F
Response given: active

Challenge: Recorded test call requested for C[C@]12CC[C@H](O)CC1=CC[C@@H]1[C@H]2CC[C@]2(C)C(c3cccnc3)=CC[C@H]12
Response given: inactive

Challenge: Fill in: this test's call for CCc1ccc(CCOc2ccc(CC3SC(=O)NC3=O)cc2)nc1 (centres undefined) is ___
Response given: inactive

Challenge: What is the recorded call for this compound in the test? Cc1ccc(-n2nc(C(C)(C)C)cc2NC(=O)Nc2ccc(OCCN3CCOCC3)c3ccccc23)cc1
Response given: active

Challenge: Hi team, can someone confirm the assay call for CCC(C)N(C)C(=O)c1cc2ccccc2c(-c2ccccc2Cl)n1 (centres undefined) ?
Response given: inactive

Challenge: Hi, sorry to bother you, what did the test record for CCN(c1ccccc1)c1cc(NC)[n+](C)c(C)n1 ?
Response given: inactive

Challenge: What did the test return for O=NN(CCCl)C(=O)NCCCl ?
Response given: inactive

Challenge: Recorded test call requested for O=C(C1CC1)N1CC[C@@H](Cn2c(-c3ccc(-c4ccc5occc5c4)cc3)nc3cnccc32)C1
Response given: inactive

Challenge: What did the test return for Cc1cnc(NC(=O)C2=C(O)c3ccccc3S(=O)(=O)N2C)s1 ?
Response given: inactive

Challenge: I would be grateful if you could indicate the recorded call for Fc1ccc(Cl)cc1-c1nc(Nc2ccncc2)c2nccnc2n1 .
Response given: inactive

Reference for the values: PubChem BioAssay (NCATS)
